Biological target: T1, IL-13RA2 huFc (human)
T1 construct: Expressed in 293F cells, purified on protein A; also called human IL13RA2; recombinant IL-13RA2
T1 sequence (chain, as listed by the source limits assumed): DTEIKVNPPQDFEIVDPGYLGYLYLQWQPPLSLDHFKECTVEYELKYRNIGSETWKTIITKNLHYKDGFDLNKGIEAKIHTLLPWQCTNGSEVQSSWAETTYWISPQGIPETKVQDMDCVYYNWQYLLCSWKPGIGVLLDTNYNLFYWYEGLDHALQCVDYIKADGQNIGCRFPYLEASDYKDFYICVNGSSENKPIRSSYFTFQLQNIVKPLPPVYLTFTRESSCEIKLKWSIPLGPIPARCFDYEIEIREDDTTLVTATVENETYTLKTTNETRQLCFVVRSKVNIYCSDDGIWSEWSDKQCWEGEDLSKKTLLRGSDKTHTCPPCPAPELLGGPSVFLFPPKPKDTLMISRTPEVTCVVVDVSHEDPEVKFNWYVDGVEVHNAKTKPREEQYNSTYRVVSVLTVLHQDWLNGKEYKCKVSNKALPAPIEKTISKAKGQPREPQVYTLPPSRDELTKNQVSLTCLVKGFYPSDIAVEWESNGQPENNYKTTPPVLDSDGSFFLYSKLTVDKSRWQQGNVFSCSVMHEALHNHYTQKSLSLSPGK
Assay: SPR (Biacore T200), nickel-purified scFv
test-readout: Kd

As a guide, the following entries are already answered.
>  <binder>
2A5 (scFv) (scFv, also called clone 2A5) scFv: EVQLLESGGGLVQPGGSLRLSCAASGFTFSRYAMNWVRQAPGKGLEWVSAISASGGGTYYADSVKGRFTISRDNSKNTLYLQMNSLRAEDTAVYYCAKVRYGWGAGAFDYWGQGTLVTVSSGGGGSGGGGSGGGGSDIQMTQSPSTLSASVGDRVTITCRASQSISSWLAWYQQKPGKAPKLLIYDASSLESGVPSRFSGSGSGTEFTLTISSLQPDDFATYYCQQYDTYPPITFGQGTKVEIK

>  <Kd>
15.5 nM

$$$$
>  <binder>
1D11 (scFv) (scFv, also called clone 1D11) scFv: EVQLLESGGGLVQPGGSLRLSCAASGFTFGTIPMSWVRQAPGKGLEWVSSISGSAGSTYYADSVKGRFTISRDNSKNTLYLQMNSLRAEDTAVYYCAKVRYGWGAGAFDYWGQGTLVTVSSGGGGSGGGGSGGGGSDIQMTQSPSTLSASVGDRVTITCRASQSISSWLAWYQQKPGKAPKLLIYDASSLESGVPSRFSGSGSGTEFTLTISSLQPDDFATYYCQQYDTYPPITFGQGTKVEIK

>  <Kd>
9.89 nM

$$$$
>  <binder>
5G3 (scFv) (scFv, also called clone 5G3) scFv: EVQLLESGGGLVQPGGSLRLSCAASGFTFSSYVLSWVRQAPGKGLEWVSAIRGSAGNTYYADSVKGRFTISRDNSKNTLYLQMNSLRAEDTAVYYCARVAFSGSFDYWGQGTLVTVSSGGGGSGGGGSGGGGSDIQMTQSPSTLSASVGDRVTITCRASQSISSWLAWYQQKPGKAPKLLIYDASSLESGVPSRFSGSGSGTEFTLTISSLQPDDFATYYCQQRNRYPPTFGQGTKVEIK

>  <Kd>
8.34 nM

$$$$

[in] Entry 2D4 (scFv) (scFv, also called clone 2D4) scFv: EVQLLESGGGLVQPGGSLRLSCAASGFTFRKYAMGWVRQAPGKGLEWVSGISGSVGSTYYADSVKGRFTISRDNSKNTLYLQMNSLRAEDTAVYYCAKVRYGWGAGAFDYWGQGTLVTVSSGGGGSGGGGSGGGGSDIQMTQSPSTLSASVGDRVTITCRASQSISSWLAWYQQKPGKAPKLLIYDASSLESGVPSRFSGSGSGTEFTLTISSLQPDDFATYYCQQYDTYPPITFGQGTKVEIK has what Kd?
[out] 8.92 nM
